# maps each entry to its pIC50
- System: U-937
- protocol.summary: Antiproliferative activity against human U-937 cells assessed as inhibition of cell growth measured after 72 by Cell titre-glo assay
- Assay type: functional, cell-based
pIC50: −log10 of the molar value.

{"columns": ["mol.smiles", "pIC50"],
 "data": [
  ["CC(C)C[C@H](NC(=O)Cc1ccccc1)C(=O)N[C@H](CCCNC(=N)N)C(=O)N[C@@H]1C(=O)N[C@@H]([C@@H](C)C(C)C)C(=O)NCC(=O)N[C@@H]([C@H](C)C(C)C)C(=O)O[C@@H]1C", "< 4.70"],
  ["CC(C)CCCCC(=O)N[C@@H](CC(C)C)C(=O)N[C@H](CCCNC(=N)N)C(=O)N[C@@H]1C(=O)N[C@@H]([C@@H](C)C(C)C)C(=O)NCC(=O)N[C@@H]([C@H](C)C(C)C)C(=O)O[C@@H]1C", "< 4.70"],
  ["CC(C)CCC(=O)N[C@@H](CC(C)C)C(=O)N[C@H](CCCNC(=N)N)C(=O)N[C@@H]1C(=O)N[C@@H]([C@@H](C)C(C)C)C(=O)NCC(=O)N[C@@H]([C@H](C)C(C)C)C(=O)O[C@@H]1C", "< 4.70"]
]}
